Recorded pIC50 for the following compounds
# testedTarget: Heme oxygenase 1 (Rattus norvegicus, UniProt P06762)
# Sequence (P06762 whole entry): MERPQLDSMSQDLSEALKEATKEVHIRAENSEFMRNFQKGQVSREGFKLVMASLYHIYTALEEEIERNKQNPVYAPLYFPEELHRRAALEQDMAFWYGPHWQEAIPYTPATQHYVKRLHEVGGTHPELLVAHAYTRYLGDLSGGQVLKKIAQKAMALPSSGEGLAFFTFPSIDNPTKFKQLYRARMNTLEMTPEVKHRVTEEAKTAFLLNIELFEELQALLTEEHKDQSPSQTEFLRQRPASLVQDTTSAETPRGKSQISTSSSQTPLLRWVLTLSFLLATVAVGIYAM
# assay: Heme Oxygenase
# assayConditions: pH 7.4; 25 °C
pIC50: −log10 of the molar value.

Example entries and their recorded answers appear below.
[[record]]
compound = "O=C(CCc1ccccc1)Cn1ccnn1 [1-azolyl-4-phenyl-2-butanone, 8]"
result = 4.05

[[record]]
compound = "O=C(CCc1ccccc1)Cn1cnc(N(O)O)n1 [1-azolyl-4-phenyl-2-butanone, 32]"
result = "< 4.00"

[[record]]
compound = "COOSc1ncnn1CC(=O)CCc1ccccc1 [1-azolyl-4-phenyl-2-butanone, 46]"
result = "< 4.00"


Incoming: Need pIC50, item O=C(CCc1ccccc1)Cn1nccn1 [1-azolyl-4-phenyl-2-butanone, 9]
Outgoing: < 4.00
